Molecular target: native PcrV on live Pseudomonas aeruginosa (strains O6-57/66, O11-PA103, O1-52/66, O16-177/81) (Pseudomonas aeruginosa)
Assay: cell-based or functional assay
measurement-name: A549 cell lysis IC50, strain O11-PA103 (µg/mL)

binder	measurement-name	reported-result
7B1 (antibody, V domains shown, also called 7B1-IgG1; 7B1 mAb) VH: EVQLLESGGGLVQPGGSLRLSCTASGFTFSDNYMSWVRQAPGKGLDWVSVISESGGSTNYADSVKGRFSTSRDNSKSTLYLDMNSLRAEDTAIYYCAKGRFSTLSSHFFRAVYGMDVWGQGTAVTVSS VL: DIQLTQSPSSLSASVGDRVTITCRASQGISSYLAWYQQKPGKAPKLLIYAASTLQSGVPSRFSGSGSGTDFTLTISSLQPEDFATYYCQQLSSYPLTFGGGTKVEIK	A549 cell lysis IC50, strain O11-PA103	2.61
13-42 mAb (antibody, V domains shown) VH: EVQLLESGGGLVQPGGSLRLSCTASGFTFSDYPMSWVRQAPGKGLDWVSGISESGGSTNDADSVKGRFSTSRDNSKSTLYLDMNSLRAEDTAIYYCAKGRFCTNSSCFFRAVYGMDVWGQGTAVTVSS VL: DIQLTQSPSSLSASVGDRVTITCRASQGISSYLAWYQQKPGKAPKLLIYAASTLQSGVPSRFSGSGSGTDFTLTISSLQPEDFATYYCQQLSSYPLSFGGGTKVEIK	A549 cell lysis IC50, strain O11-PA103	1.21
8C1 (antibody, V domains shown, also called optimized anti-PcrV mAb clone 8C1) VH: EVQLLESGGGLVQPGGSLRLSCTASGFTFSDNHMSWVRQAPGKGLDWVSGISESGGSTNYADSVKGRFSTSRDNSKSTLYLDMNSLRAEDTAIYYCAKGRFSTNSAHFFRAVYGMDVWGQGTAVTVSS VL: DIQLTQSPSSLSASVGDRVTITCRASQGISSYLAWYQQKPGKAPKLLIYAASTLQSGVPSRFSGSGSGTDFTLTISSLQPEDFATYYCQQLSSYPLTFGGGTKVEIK	A549 cell lysis IC50, strain O11-PA103	1.54
7C1 (antibody, V domains shown, also called optimized anti-PcrV mAb clone 7C1) VH: EVQLLESGGGLVQPGGSLRLSCTASGFTFSDNHMSWVRQAPGKGLDWVSGISESGGSTNYADSVKGRFSTSRDNSKSTLYLDMNSLRAEDTAIYYCAKGRFSTSSSHFYRAVYGMDVWGQGTAVTVSS VL: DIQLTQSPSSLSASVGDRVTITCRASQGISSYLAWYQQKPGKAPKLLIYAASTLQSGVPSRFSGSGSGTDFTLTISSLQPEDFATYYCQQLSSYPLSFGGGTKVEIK	A549 cell lysis IC50, strain O11-PA103	1.12
